- EXPERIMENTAL_SYSTEM: T1, Nbp2, Q12163
- T1 sequence (Q12163 103-180, looked up): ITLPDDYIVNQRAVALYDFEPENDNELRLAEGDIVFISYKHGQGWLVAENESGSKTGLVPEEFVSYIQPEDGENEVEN
- EXPERIMENT: SPOT array
- ASSAY_SETUP: median of control spots 357
ENDPOINT_NAME: SPOT intensity

Look over these answered cases.
MFLISPPASPPPEFD :: 0
RLSRLLLSLPPESFT :: 42
DLPLPDLPPEPPTEL :: 0
MKRSRPSRSIPYTTP :: 0

A = MAMRPIPPLPTESEY
B = RLPAPPPPPRRGPAP
Query: Given A and B , report the one with the higher recorded SPOT intensity. Refer to your chosen item by its label in the answer.
Response: B
(B: 1, A: 0)

I = AAAPKHAPPPVPNET
II = RRRRRPHRIERPLSN
Query: Given I and II , report the one with the higher recorded SPOT intensity. Refer to your chosen item by its label in the answer.
Response: II

P = NPLPKEPRLPKRKVA
Q = GRSRLFPHSPLGRSS
Query: Given P and Q , report the one with the higher recorded SPOT intensity. Refer to your chosen item by its label in the answer.
Response: Q

These measurements were taken from paper PMC2756588.
